For each record, write down the corresponding blood glucose level (in vivo glucose reduction).
system: male C57BL/6J mice; test: Acute single dose 120-min time-course experiment, in vivo glucose reduction; parameters: unit not given here; settings: 2 μM/kg, oral; 30 min; n = 8, Mean ± SEM
Numbers only.

CCc1cc(OC)ccc1-c1ccc(CC(C)(NC(=O)C(C)(CC(=O)O)NC(=O)[C@H](CO)NC(=O)[C@@H](NC(=O)[C@H](Cc2ccccc2)NC(=O)[C@@H](NC(=O)CNC(=O)[C@H](CCC(N)=O)NC(=O)C(C)(C)NC(=O)[C@H](Cc2c[nH]cn2)NC(=O)[C@@H](N)C(C)C)[C@@H](C)O)[C@@H](C)O)C(=O)NC(CCCc2ccccc2)C(N)=O)cc1 (single isomer, unassigned) | 115
CCc1cc(OC)ccc1-c1ccc(CC(NC(=O)[C@H](CC(=O)O)NC(=O)[C@H](CO)NC(=O)[C@@H](NC(=O)C(C)(Cc2c(F)cccc2F)NC(=O)[C@@H](NC(=O)CNC(=O)[C@H](CCC(N)=O)NC(=O)[C@H](CO)NC(=O)[C@H](Cc2c[nH]cn2)NC(=O)[C@@H](N)C(C)C)[C@@H](C)O)[C@@H](C)O)C(=O)NC(C)(CCCc2ccccc2)C(N)=O)cc1 (single isomer, unassigned) | 118
CCc1cc(OC)ccc1-c1ccc(CC(C)(NC(=O)C(C)(CC(=O)O)NC(=O)[C@H](CO)NC(=O)[C@@H](NC(=O)[C@H](Cc2ccccc2)NC(=O)[C@@H](NC(=O)CNC(=O)[C@H](CCC(=O)O)NC(=O)C2(C)CCCN2C(=O)[C@H](Cc2c[nH]cn2)NC(=O)[C@@H](N)C(C)C)[C@@H](C)O)[C@@H](C)O)C(=O)NC(CCCc2ccccc2)C(N)=O)cc1 (single isomer, unassigned) | 116
CCc1cc(OC)ccc1-c1ccc(CC(NC(=O)C(C)(CC(=O)O)NC(=O)C(C)(CO)NC(=O)[C@@H](NC(=O)C(C)(Cc2c(F)cccc2F)NC(=O)[C@@H](NC(=O)CNC(=O)[C@H](CCC(=O)O)NC(=O)C(C)(C)NC(=O)[C@H](Cc2c[nH]cn2)NC(=O)[C@@H](N)C(C)C)[C@@H](C)O)[C@@H](C)O)C(=O)NC(C)(CCCc2ccccc2)C(N)=O)cc1 (single isomer, unassigned) | 116

Now for a further molecule.
Task: Fill in blood glucose level (in vivo glucose reduction) for record CCc1cc(OC)ccc1-c1ccc(CC(C)(NC(=O)[C@H](CC(=O)O)NC(=O)[C@H](CO)NC(=O)[C@@H](NC(=O)C(C)(Cc2ccccc2F)NC(=O)[C@@H](NC(=O)CNC(=O)[C@H](CCC(=O)O)NC(=O)[C@H](CO)NC(=O)[C@H](Cc2c[nH]cn2)NC(=O)[C@@H](N)C(C)C)[C@@H](C)O)[C@@H](C)O)C(=O)NC(C)(CCCc2ccccc2)C(N)=O)cc1 (single isomer, unassigned)
Output: 118

###

experiment: Stability in liver microsomes; format: in vitro ADME, human; details: 2 μM, 37° C., 24 h
Where a SMILES comes first, the peptide text is derived from it. [ ]: non-standard residue; d: D form. ξ: configuration not given here. ξαMeBip(2'-Et,4'-OMe) = CCc1cc(OC)ccc1-c1ccc(CC(C)(N)C(=O)O)cc1; ξαMePhe(2,6-F2) = CC(N)(Cc1c(F)cccc1F)C(=O)O; ξαMe(hhPhe) = CC(N)(CCCc1ccccc1)C(=O)O; ξαMePhe(2-F) = CC(N)(Cc1ccccc1F)C(=O)O; ξαMeD = CC(N)(CC(=O)O)C(=O)O; ξαMeS = CC(N)(CO)C(=O)O; Aib = CC(C)(N)C(=O)O
Would you mind telling me the reported % degradation in 24 h when incubated with liver microsomes of each entry?
One number for each entry, in %.

Reference set, count: 2
CCc1cc(OC)ccc1-c1ccc(CC(C)(NC(=O)C(C)(CC(=O)O)NC(=O)[C@H](CO)NC(=O)[C@@H](NC(=O)C(C)(Cc2ccccc2F)NC(=O)[C@@H](NC(=O)CNC(=O)[C@H](CCC(N)=O)NC(=O)C(C)(C)NC(=O)[C@H](Cc2c[nH]cn2)NC(=O)[C@@H](N)C(C)C)[C@@H](C)O)[C@@H](C)O)C(=O)NC(C)(CCCc2ccccc2)C(N)=O)cc1 (stereo partly drawn) [compound 191] (H-VH[Aib]QGT[ξαMePhe(2-F)]TS[ξαMeD][ξαMeBip(2'-Et,4'-OMe)][ξαMe(hhPhe)]-NH2) | 79
CCc1cc(OC)ccc1-c1ccc(CC(C)(NC(=O)[C@H](CC(=O)O)NC(=O)C(C)(CO)NC(=O)[C@@H](NC(=O)C(C)(Cc2ccccc2F)NC(=O)[C@@H](NC(=O)CNC(=O)[C@H](CCC(=O)O)NC(=O)[C@H](C)NC(=O)[C@H](Cc2c[nH]cn2)NC(=O)[C@@H](N)C(C)C)[C@@H](C)O)[C@@H](C)O)C(=O)NC(C)(CCCc2ccccc2)C(N)=O)cc1 (stereo partly drawn) [compound 170] (H-VHAEGT[ξαMePhe(2-F)]T[ξαMeS]D[ξαMeBip(2'-Et,4'-OMe)][ξαMe(hhPhe)]-NH2) | 81

Now consider the entry below.
Task: Output % degradation in 24 h when incubated with liver microsomes of CCc1cc(OC)ccc1-c1ccc(CC(C)(NC(=O)[C@H](CC(=O)O)NC(=O)C(C)(CO)NC(=O)[C@@H](NC(=O)C(C)(Cc2c(F)cccc2F)NC(=O)[C@@H](NC(=O)CNC(=O)[C@H](CCC(=O)O)NC(=O)[C@H](C)NC(=O)[C@H](Cc2c[nH]cn2)NC(=O)[C@@H](N)C(C)C)[C@@H](C)O)[C@@H](C)O)C(=O)NC(C)(CCCc2ccccc2)C(N)=O)cc1 (stereo partly drawn) [compound 178] (H-VHAEGT[ξαMePhe(2,6-F2)]T[ξαMeS]D[ξαMeBip(2'-Et,4'-OMe)][ξαMe(hhPhe)]-NH2)
Output: 84
